Give measured remaining at 4 h, 10 µM for each item. Keep answers brief.
experiment: Peptide stability in simulated intestinal fluid (SIF); assay type: in vitro ADME; settings: pig, 37 °C, porcine pancreatin, pH 6.8, 4 h, read-out: SIF (% remaining 4 h)
*1 amine or outer side, *2 acyl side, *3 side chain or, on linkers, in order; H or OH if unused. Where a SMILES comes first, the peptide text is derived from it. Bridges are numbered along the chain shown (N, C = ends). [ ]: non-standard residue; d: D form. 2Nal = N[C@@H](Cc1ccc2ccccc2c1)C(=O)O; AEF = NCCOc1ccc(C[C@H](N)C(=O)O)cc1; X1 = O=C(Cc1ccc(CN[*:1])cc1)[*:2]; 3Pal = N[C@@H](Cc1cccnc1)C(=O)O; Lys(Me) = CNCCCC[C@H](N)C(=O)O; αMeL = CC(C)C[C@](C)(N)C(=O)O; CH2COCH2 = O=C(C[*:1])C[*:2]; 3Amb = NCc1cccc(C(=O)O)c1; Dab = NCC[C@H](N)C(=O)O
The response must be a number in % with no trailing unit.

Data request: So what does the record say about remaining at 4 h, 10 µM for CC[C@H](C)[C@@H]1NC(=O)[C@@H]2CCC(=O)N(C)CCCC[C@@H](C(=O)N[C@@H](CCN)C(=O)N[C@@H](Cc3cccnc3)C(=O)NC)NC(=O)[C@](C)(CC(C)C)NC(=O)[C@H](Cc3ccc4ccccc4c3)NC(=O)[C@H](Cc3ccc(OCCN)cc3)NC(=O)[C@H](CCC(=O)N2)NC(=O)[C@H](CCC(N)=O)NC(=O)[C@H](Cc2c[nH]c3ccccc23)NC(=O)[C@H](C(C)C)NC1=O [Compound 74] (EIVWQE[AEF][2Nal][αMeL][Lys(Me)][Dab][3Pal]-NHMe; lactam 1-10, N-6) ?
Data returned: 89

Data request: So what does the record say about remaining at 4 h, 10 µM for CNC(=O)[C@H](Cc1cccnc1)NC(=O)[C@H](CCN)NC(=O)[C@@H]1CCC(=O)NCCCC[C@@H]2NC(=O)CC[C@H](NC(=O)[C@H](CCC(N)=O)NC(=O)[C@H](Cc3c[nH]c4ccccc34)NC(=O)CCCNC2=O)C(=O)N[C@@H](Cc2ccc(OCCN)cc2)C(=O)N[C@@H](Cc2ccc3ccccc3c2)C(=O)N[C@@](C)(CC(C)C)C(=O)N1 [Compound 98] ?
Data returned: 58

Data request: So what does the record say about remaining at 4 h, 10 µM for CNC(=O)[C@H](Cc1cccnc1)NC(=O)[C@H](CCN)NC(=O)[C@@H]1CCC(=O)NCCCC[C@@H]2NC(=O)CC[C@H](NC(=O)[C@H](CCC(N)=O)NC(=O)[C@H](Cc3c[nH]c4ccccc34)NC(=O)CCN(C)C2=O)C(=O)N[C@@H](Cc2ccc(OCCN)cc2)C(=O)N[C@@H](Cc2ccc3ccccc3c2)C(=O)N[C@@](C)(CC(C)C)C(=O)N1 [Compound 81] ?
Data returned: 78

Data request: So what does the record say about remaining at 4 h, 10 µM for CC[C@H](C)[C@H]1CC(=O)N[C@@H](Cc2c[nH]c3ccccc23)C(=O)N[C@@H](CCC(N)=O)C(=O)N[C@H]2CCC(=O)N[C@@H](CCCCNC(=O)CC[C@@H](C(=O)N[C@@H](CCN)C(=O)N[C@@H](Cc3cccnc3)C(=O)NC)NC(=O)[C@](C)(CC(C)C)NC(=O)[C@H](Cc3ccc4ccccc4c3)NC(=O)[C@H](Cc3ccc(OCCN)cc3)NC2=O)C(=O)N1 [Compound 96] ?
Data returned: 105

Data request: So what does the record say about remaining at 4 h, 10 µM for CNC(=O)[C@H](Cc1cccnc1)NC(=O)[C@H](CCN)NC(=O)[C@@H]1CCC(=O)NCCCC[C@@H]2NC(=O)CC[C@H](NC(=O)[C@H](CCC(N)=O)NC(=O)[C@H](Cc3c[nH]c4ccccc34)NC(=O)CCNC2=O)C(=O)N[C@@H](Cc2ccccn2)C(=O)N[C@@H](Cc2ccc3ccccc3c2)C(=O)N[C@@](C)(CC(C)C)C(=O)N1 [Compound 84] ?
Data returned: 82

Data request: So what does the record say about remaining at 4 h, 10 µM for CC[C@H](C)[C@@H]1NC(=O)[C@@H]2CCCCNC(=O)CC[C@@H](C(=O)N[C@@H](CCN)C(=O)NCCc3cccnc3)NC(=O)[C@](C)(CC(C)C)NC(=O)[C@H](Cc3ccc4ccccc4c3)NC(=O)[C@H](Cc3ccc(OCCN)cc3)NC(=O)[C@H](CCC(=O)N2)NC(=O)[C@H](CCC(N)=O)NC(=O)[C@H](Cc2c[nH]c3ccccc23)NC(=O)[C@H](C(C)C)NC1=O [Compound 66] ?
Data returned: 112

Data request: So what does the record say about remaining at 4 h, 10 µM for CC(C)C[C@]1(C)NC(=O)[C@H](Cc2ccc3ccccc3c2)NC(=O)[C@H](Cc2ccc(OCCN)cc2)NC(=O)[C@@H]2CSCC(=O)CSC[C@H](NC(=O)[C@H](CO)NC(=O)Cc3ccc(cc3)CNC(=O)CC[C@@H](C(=O)N[C@@H](CO)C(N)=O)NC1=O)C(=O)N[C@@H](Cc1c[nH]c3ccccc13)C(=O)N[C@@H](CCC(N)=O)C(=O)N2 [Ref 81, reference compound] ?
Data returned: 77

Data request: So what does the record say about remaining at 4 h, 10 µM for CNC(=O)[C@H](Cc1cccnc1)NC(=O)[C@H](CCN)NC(=O)[C@@H]1CCC(=O)N[C@H]2CCCCNC(=O)CC[C@H](NC(=O)[C@H](CCC(N)=O)NC(=O)[C@H](Cc3c[nH]c4ccccc34)NC(=O)CNC2=O)C(=O)N[C@@H](Cc2ccc(OCCN)cc2)C(=O)N[C@@H](Cc2ccc3ccccc3c2)C(=O)N[C@@](C)(CC(C)C)C(=O)N1 [Compound 104] ?
Data returned: 89

Data request: So what does the record say about remaining at 4 h, 10 µM for CC(C)C[C@]1(C)NC(=O)[C@H](Cc2ccc3ccccc3c2)NC(=O)[C@H](Cc2ccc(OCCN)cc2)NC(=O)[C@@H]2CSCC(=O)CSC[C@H](NC(=O)[C@H](CO)NC(=O)Cc3ccc(cc3)CNC(=O)CC[C@@H](C(=O)N[C@@H](CCN)C(=O)N[C@@H](Cc3cccnc3)C(N)=O)NC1=O)C(=O)N[C@@H](Cc1c[nH]c3ccccc13)C(=O)N[C@@H](CCC(N)=O)C(=O)N2 [Ref 120, reference compound] ([X1]SCWQC[AEF][2Nal][αMeL]E[Dab][3Pal]-NH2; linker 3-6 via CH2COCH2; lactam N-10) ?
Data returned: 39

Data request: So what does the record say about remaining at 4 h, 10 µM for CNC(=O)[C@H](Cc1cccnc1)NC(=O)[C@H](CCN)NC(=O)[C@@H]1CCC(=O)NCCCC[C@@H]2NC(=O)CC[C@H](NC(=O)[C@H](CCC(N)=O)NC(=O)[C@H](Cc3c[nH]c4ccccc34)NC(=O)CCNC2=O)C(=O)N[C@@H](Cc2ccncc2)C(=O)N[C@@H](Cc2ccc3ccccc3c2)C(=O)N[C@@](C)(CC(C)C)C(=O)N1 [Compound 85] ?
Data returned: 85

Data request: So what does the record say about remaining at 4 h, 10 µM for CC(C)C[C@@H]1NC(=O)[C@H](Cc2ccc3ccccc3c2)NC(=O)[C@H](Cc2c[nH]c3ccccc23)NC(=O)[C@@H]2CSCC(=O)CSC[C@H](NC(=O)[C@H](CO)NC(=O)c3cccc(c3)CNC(=O)CC[C@@H](C(=O)N[C@@H](CCCNC(=N)N)C(N)=O)NC1=O)C(=O)N[C@@H](Cc1c[nH]c3ccccc13)C(=O)N[C@@H](CCC(N)=O)C(=O)N2 [Ref 37, reference compound] ([3Amb]SCWQCW[2Nal]LER-NH2; linker 3-6 via CH2COCH2; lactam N-10) ?
Data returned: 0
